Provide the recorded inhibition at 1 µM for the entries that follow.
# SUBJECT OF TEST: S. aureus TrmD (Staphylococcus aureus, UniProt Q2FZ43)
# Construct: made in house; host or cells: E. coli BL21
# Sequence (Q2FZ43 1-245): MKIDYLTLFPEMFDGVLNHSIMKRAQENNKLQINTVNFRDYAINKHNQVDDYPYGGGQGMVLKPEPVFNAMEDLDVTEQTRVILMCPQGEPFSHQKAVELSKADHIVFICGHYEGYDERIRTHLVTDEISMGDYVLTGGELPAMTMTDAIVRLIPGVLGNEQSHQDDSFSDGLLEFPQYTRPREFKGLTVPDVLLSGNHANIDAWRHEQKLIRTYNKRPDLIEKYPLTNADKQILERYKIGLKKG
# TEST NAME: nanoSAR direct-to-biology FP displacement screening of crude triazoles
# Format: binding
# CONDITION CONTEXT: crude triazole at 1 μM, assuming full conversion; 500 nM TrmD, 10 nM tracer 4; read-out: % displaced tracer
Numbers only, in %.

Consider the reported inhibition at 1 µM for these molecules:
N[C@H]1C[C@@H](n2cc(-c3c[nH]c4nc[nH]c(=O)c34)nn2)C1 = 31
O=C(c1ncon1)n1cc(-c2c[nH]c3nc[nH]c(=O)c23)nn1 = 1.83
CCc1nnc(Cn2cc(-c3c[nH]c4nc[nH]c(=O)c34)nn2)o1 = 31

We now examine a further molecule.
// recorded inhibition at 1 µM for COc1cccc(-n2cc(-c3c[nH]c4nc[nH]c(=O)c34)nn2)c1 : 11

* * *

# SUBJECT OF TEST: S. aureus TrmD (Staphylococcus aureus, UniProt Q2FZ43)
# Construct: made in house; host or cells: E. coli BL21
# Sequence (Q2FZ43 1-245): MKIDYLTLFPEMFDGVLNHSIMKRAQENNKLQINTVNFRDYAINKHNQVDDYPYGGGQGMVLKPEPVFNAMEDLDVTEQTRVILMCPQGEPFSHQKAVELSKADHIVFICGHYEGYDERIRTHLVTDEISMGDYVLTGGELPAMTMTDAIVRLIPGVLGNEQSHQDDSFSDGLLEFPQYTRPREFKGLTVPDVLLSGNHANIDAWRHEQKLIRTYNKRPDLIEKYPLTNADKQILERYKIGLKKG
# TEST NAME: nanoSAR direct-to-biology FP displacement screening of crude triazoles
# Type: binding
# CONDITION CONTEXT: crude triazole at 1 μM, assuming full conversion; 500 nM TrmD, 10 nM tracer 4; read-out: % displaced tracer
# Procedure: Next, we conducted an S. aureus TrmD-targeting nanoSAR study. For this, alkyne 7 was reacted on a 96 nmol scale with an in-house diversity-oriented azide library (N = 320, mean pairwise Tanimoto similarity = 0.11) designed to cover a large chemical fragment space, generating a panel of 320 crude triazoles ready for FP assay investigation. […] Fluorescence polarization (FP) assays were performed as follows. […]
Would you mind telling me the reported inhibition at 1 µM of each entry?
Answers are plain numbers, in %.

Here's what some known entries look like.
COc1ccc(Cn2cc(-c3c[nH]c4nc[nH]c(=O)c34)nn2)cc1 [Compound 02E05] = 78
O=C(Cn1cc(-c2c[nH]c3nc[nH]c(=O)c23)nn1)Nc1ccccc1 [Compound 01A10] = 41
Cc1ccccc1-n1cc(-c2c[nH]c3nc[nH]c(=O)c23)nn1 [Compound 01D08] = 9

Give inhibition at 1 µM for each listed item.
1. O=C(NCCCn1cc(-c2c[nH]c3nc[nH]c(=O)c23)nn1)c1c[nH]nn1 [Compound 02B11]
2. Cc1cc(C)cc(-n2cc(-c3c[nH]c4nc[nH]c(=O)c34)nn2)c1 [Compound 03B05]
3. O=c1[nH]cnc2[nH]cc(-c3cn(CC4CCCCC4)nn3)c12 [Compound 01B10, O=C1NC=NC=2NC=C(C=3N=NN(C3)CC4CCCCC4)C12]

1. 10
2. 24
3. 33

Below are 2 molecules. Give each one its inhibition at 1 µM.
1. C[C@H](c1ccc(Cl)cc1)n1cc(-c2c[nH]c3nc[nH]c(=O)c23)nn1 [Compound 02H11]
2. CCN(CC)C(=O)Cn1cc(-c2c[nH]c3nc[nH]c(=O)c23)nn1 [Compound 01C10]

[41, 25]

Origin of the recorded values: paper PMC12751012
